# Lookup of reported z-score keyed by entry
Experiment: optical density change of DRC41 E. coli – strain DRC41, OD650, 24 h, E. coli filamentation project, primary screen (AID 1093);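 also: MC1000 strain lacking acrAB efflux and sulA so SOS filamentation is blocked; test concentration not given here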
Conditions: E. coli DRC41 growth, higher = more signal, called active from +8 up or from −8 down
property: z-score

INSERT INTO measurements (compound, property, endpoint_result) VALUES
  ('C=CCN1C(=O)[C@]2(CCS(=O)(=O)c3ccccc3)N=C(c3ccc(OCCCO)cc3)O[C@@H]2c2ccccc21', 'z-score', 0.624),
  ('CC(C)C[C@@H]1NC(=O)[C@@H]2C[C@H](C(=O)NCCCCCCN)[C@H](c3cccc(OCCO)c3)N2C1=O', 'z-score', 1.03),
  ('COCC(=C=CC[C@H](O)c1ccc(CO)o1)CCO', 'z-score', -0.349),
  ('C=CCNC(=O)[C@@H]1[C@H]2C(=O)O[C@H](c3ccccc3)[C@H](c3ccccc3)N2[C@H](c2ccc(O)cc2)[C@@]12C(=O)N(C(=O)OCCOC)c1ccc(C#CC3=CCCCC3)cc12', 'z-score', -0.633),
  ('CCCC=C(CCC)[C@@H](NC(=O)C(C)(C)C)c1ccc(C(=O)OC)cc1', 'z-score', -0.447),
  ('CCCCC(CC)C(O)C1C=CC2C(=O)N(C)C(=O)C2N1Nc1ccccc1 (stereo not given)', 'z-score', -0.931),
  ('Cc1ccc(S[C@]2(C(=O)NCCN3CCOCC3)CC(=O)N(Cc3ccccc3Cl)[C@@H]2c2ccc(CO)cc2I)cc1', 'z-score', -0.373),
  ('CCOC(=O)C[C@H]1[C@H](OC(=O)c2ccccc2-c2ccccc2)[C@@H](NC(=O)c2ccc3ccccc3c2)c2cc(OCCCO)ccc2N1C(=O)c1ccccc1', 'z-score', 0.356),
  ('CCCNC(=O)[C@@]1(Sc2ccc(C)cc2)CC(=O)N(C2Cc3ccccc3C2)[C@@H]1c1ccc(CO)cc1I', 'z-score', 0.761),
  ('CC(C)C(CO)N1C(=O)[C@@H]2C3C(=O)OCCC/C=C\[C@H]3OC23C=CCN(c2ccc4ccccc4c2)C(=O)[C@@H]13 (stereo not given in full)', 'z-score', -0.395),
  ('NC(=O)NCC#Cc1ccc2c(c1)[C@]1(C(=O)N2)[C@H](c2ccccc2OCCO)N2[C@H](c3ccccc3)[C@H](c3ccccc3)OC(=O)[C@H]2[C@@H]1C(=O)NC[C@H](O)c1ccccc1', 'z-score', 2.36),
  ('COC(=O)C1=CC(CCCO)=CC(c2cccs2)N(Cc2cccc(OC(F)(F)F)c2)C=C1C(=O)OC (stereo not given)', 'z-score', 0.313),
  ('C=CCC(OC(C)=O)[C@@H]1[C@@H](N(Cc2cccc3ccccc23)C(=O)Cc2ccc(OC)cc2)c2cc(OCCCO)ccc2N1C(=O)c1ccc(-c2ccccc2)cc1 (stereo not given in full)', 'z-score', -0.373),
  ('COCC(=C=CC[C@H](O)c1ccccc1OCCO)C[C@H](O)c1ccccn1', 'z-score', 0.723),
  ('COc1ccc([Si](C)(C)[C@H]2[C@H](CC(=O)N3Cc4ccccc4C[C@H]3CO)O[C@@]3(C(=O)N(Cc4ccc(N5CCOC5=O)cc4)c4ccccc43)[C@@H]2C)cc1', 'z-score', -0.167);
